The reported numbers originate from BigSolDB 2.1.

- assayConditions: in n-butyl acetate, 298.15 K

{"sampleSmiles": "Cc1cc(Cl)ccc1OCC(=O)O", "solubility (mole fraction)": 0.139}

====

- assayConditions: in ethyl acetate, 278.15 K

{"sampleSmiles": "Cc1cc(Cl)ccc1OCC(=O)O", "solubility (mole fraction)": 0.101}

====

- assayConditions: in n-butyl acetate, 313.15 K
observable: solubility (mole fraction)

{"sampleSmiles": "Cc1cc(Cl)ccc1OCC(=O)O", "testValue": 0.209}

====

- assayConditions: in ethyl acetate, 323.15 K

{"sampleSmiles": "Cc1cc(Cl)ccc1OCC(=O)O", "solubility (mole fraction)": 0.299}

====

- assayConditions: in n-propanol, 278.15 K
observable: solubility (mole fraction)

{"sampleSmiles": "Cc1cc(Cl)ccc1OCC(=O)O", "testValue": 0.127}
